- Test target: human PAI-1 (Homo sapiens)
- Sequence (P05121 24-402): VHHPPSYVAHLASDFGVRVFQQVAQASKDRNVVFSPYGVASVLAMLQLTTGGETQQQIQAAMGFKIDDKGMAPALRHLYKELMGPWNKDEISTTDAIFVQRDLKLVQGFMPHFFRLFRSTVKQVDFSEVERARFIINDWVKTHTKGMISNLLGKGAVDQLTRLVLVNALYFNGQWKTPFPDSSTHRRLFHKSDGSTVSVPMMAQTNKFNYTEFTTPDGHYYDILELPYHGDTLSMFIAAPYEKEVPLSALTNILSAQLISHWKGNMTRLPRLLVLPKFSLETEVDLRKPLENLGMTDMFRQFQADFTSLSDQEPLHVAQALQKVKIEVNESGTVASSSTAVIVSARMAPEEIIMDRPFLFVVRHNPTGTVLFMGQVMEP
- Test: Assay for Determining IC50 of Inhibition of PAI-1 (antibody detection of active PAI-1 bound to tPA-coated plate)
- Format: biochemical
- Reported conditions: human PAI-1 50 ng/ml, pH 7.5, 33B8 monoclonal antibody detection
Readout type: IC50 (µM)
# value in µM; strip the unit string

Consider the molecule O=C(O)Cn1cc(Cc2cc(C(F)(F)F)cc(C(F)(F)F)c2)c2cc(-c3ccc(OC(F)(F)F)cc3)ccc21 [Example 2] and give its measured IC50.
15.1

----------
- Test target: recombinant human plasminogen activator inhibitor-1 (Homo sapiens, UniProt P05121)
- Construct: purchased Molecular Innovations, Royal Oak, Mich
- Sequence (P05121 24-402): as above
- Test: Primary Screen for the PAI-1 Inhibition (residual tPA activity, chromogenic Spectrozyme-tPA)
- Assay type: biochemical
- Reported conditions: 25 μM test compound; 140 nM PAI-1, 70 nM tPA, pH 6.6
Readout type: inhibition at 25 µM (%)
Numbers only; they are read as %.

Look at this molecule and give its reported inhibition at 25 µM. CC(c1ccccc1)c1cn(CC(=O)O)c2ccc(-c3ccc(Cl)cc3Cl)cc12 (stereo not drawn)
26

----------
- Test target: recombinant human plasminogen activator inhibitor-1 (Homo sapiens)
- Construct: purchased Molecular Innovations, Royal Oak, Mich
- Test: Primary Screen for the PAI-1 Inhibition (residual tPA activity, chromogenic Spectrozyme-tPA)
- Assay type: biochemical
- Reported conditions: 25 μM test compound; 140 nM PAI-1, 70 nM tPA, pH 6.6
Readout type: inhibition at 25 µM (%)
Hi! Could you send only the number? It should be in %, unit omitted.

Guide cases for inhibition at 25 µM, answers given:
CC(c1cccs1)c1cn(CC(=O)O)c2ccc(-c3cccc(C(F)(F)F)c3)cc12 (centres unmarked)
47
O=C(O)Cn1cc(Cc2cc(C(F)(F)F)cc(C(F)(F)F)c2)c2cc(-c3ccc(OC(F)(F)F)cc3)ccc21
31
O=C(O)Cn1cc(Cc2cc(C(F)(F)F)cc(C(F)(F)F)c2)c2cc(-c3ccc(Cl)cc3Cl)ccc21
100
CC(c1cn(CC(=O)O)c2ccc(-c3cccc(C(F)(F)F)c3)cc12)C1CCCCC1 (centres unmarked)
64
CC(C)CC(C)c1cn(CC(=O)O)c2ccc(-c3ccc(Cl)cc3Cl)cc12 (centres unmarked)
48

Query: inhibition at 25 µM; subject: O=C(O)Cn1cc(Cc2cc(C(F)(F)F)cc(C(F)(F)F)c2)c2cc(-c3cccc(C(F)(F)F)c3)ccc21
35

// returns reported inhibition at 25 µM for input CC(c1ccccc1)c1cn(CC(=O)O)c2ccc(-c3cccc(C(F)(F)F)c3)cc12 (centres unmarked)
49

Using the record for CC(C)c1ccc(Cc2cn(CC(=O)O)c3ccc(-c4cccc(C(F)(F)F)c4)cc23)cc1 , report its inhibition at 25 µM.
26

Measured values drawn from patent US7348351B2 for this set.
